Biological target: Human immunodeficiency virus type 1 protease (Human immunodeficiency virus 1)
measuredQuantity: Ki (nM)
Write the answer as a number in nM, unit excluded.

Some molecules with known Ki results, for comparison:
molecule=CNC(=O)[C@@H](NC(=O)[C@H](OCc1ccc(F)cc1F)[C@H](O)[C@@H](O)[C@@H](OCc1ccc(F)cc1F)C(=O)N[C@H](C(=O)NC)C(C)C)C(C)C valuereported=1.12
molecule=CNC(=O)[C@@H](NC(=O)[C@H](OCc1ccc(F)cc1)[C@H](O)[C@@H](O)[C@@H](OCc1ccc(F)cc1)C(=O)N[C@H](C(=O)NC)C(C)C)C(C)C valuereported=1.79

Record O=C(NC1c2ccccc2C[C@H]1O)[C@H](OCc1cc(F)cc(F)c1)[C@H](O)[C@@H](O)[C@@H](OCc1cc(F)cc(F)c1)C(=O)N[C@H]1c2ccccc2C[C@H]1O (stereo partly drawn) . Reported Ki: 5

---

Target: UniProt:Q72874
Experiment: Anti-HIV-1 activity against mutant HIV-1 in MT-4 cells (mutation selected with saquinavir)
Type: functional, cell-based
Conditions: MT4
measuredQuantity: ED50 (µM)
Write the answer as a number in µM, unit excluded.

molecule=CNC(=O)[C@@H](NC(=O)[C@H](OCc1cccc(F)c1)[C@H](O)[C@@H](O)[C@@H](OCc1cccc(F)c1)C(=O)N[C@H](C(=O)NC)C(C)C)C(C)C valuereported=1.04
molecule=CNC(=O)[C@@H](NC(=O)[C@H](OCc1cccc(F)c1F)[C@H](O)[C@@H](O)[C@@H](OCc1cccc(F)c1F)C(=O)N[C@H](C(=O)NC)C(C)C)C(C)C valuereported=1.11
molecule=CNC(=O)[C@@H](NC(=O)[C@H](OCc1ccccc1)[C@H](O)[C@@H](O)[C@@H](OCc1ccccc1)C(=O)N[C@H](C(=O)NC)C(C)C)C(C)C valuereported=6.1

Now examine the next entry.
Record O=C(NC1c2ccccc2C[C@H]1O)[C@H](OCc1ccccc1)[C@H](O)[C@@H](O)[C@@H](OCc1ccccc1)C(=O)N[C@H]1c2ccccc2C[C@H]1O (some centres undefined) . Reported ED50: 0.07

---

Target: Human immunodeficiency virus type 1 protease (Human immunodeficiency virus 1)
Assay: Anti-HIV-1 activity against mutant HIV-1 in MT-4 cells (mutation selected with nelfinavir)
Assay type: functional, cell-based
Details: MT4
Mark criterion met for ED50 under 1 µM, criterion not met if at or over.

Examples from the recorded data:
compound="O=C(NC1c2ccccc2C[C@H]1O)[C@H](OCc1ccc(F)c(F)c1)[C@H](O)[C@@H](O)[C@@H](OCc1ccc(F)c(F)c1)C(=O)N[C@H]1c2ccccc2C[C@H]1O (some centres undefined)" system="Human immunodeficiency virus type 1 protease (Human immunodeficiency virus 1)" assignedcategory="criterion met"
compound=CNC(=O)[C@@H](NC(=O)[C@H](OCc1ccccc1F)[C@H](O)[C@@H](O)[C@@H](OCc1ccccc1F)C(=O)N[C@H](C(=O)NC)C(C)C)C(C)C system="Human immunodeficiency virus type 1 protease (Human immunodeficiency virus 1)" assignedcategory="criterion not met"
compound=CNC(=O)[C@@H](NC(=O)[C@H](OCc1cccc(F)c1F)[C@H](O)[C@@H](O)[C@@H](OCc1cccc(F)c1F)C(=O)N[C@H](C(=O)NC)C(C)C)C(C)C system="Human immunodeficiency virus type 1 protease (Human immunodeficiency virus 1)" assignedcategory="criterion met"
compound=CNC(=O)[C@@H](NC(=O)[C@H](OCc1c(F)cccc1F)[C@H](O)[C@@H](O)[C@@H](OCc1c(F)cccc1F)C(=O)N[C@H](C(=O)NC)C(C)C)C(C)C system="Human immunodeficiency virus type 1 protease (Human immunodeficiency virus 1)" assignedcategory="criterion not met"
compound=CNC(=O)[C@@H](NC(=O)[C@H](OCc1cc(F)cc(F)c1)[C@H](O)[C@@H](O)[C@@H](OCc1cc(F)cc(F)c1)C(=O)N[C@H](C(=O)NC)C(C)C)C(C)C system="Human immunodeficiency virus type 1 protease (Human immunodeficiency virus 1)" assignedcategory="criterion met"
compound=CNC(=O)[C@@H](NC(=O)[C@H](OCc1cccc(F)c1)[C@H](O)[C@@H](O)[C@@H](OCc1cccc(F)c1)C(=O)N[C@H](C(=O)NC)C(C)C)C(C)C system="Human immunodeficiency virus type 1 protease (Human immunodeficiency virus 1)" assignedcategory="criterion not met"
compound="O=C(NC1c2ccccc2C[C@H]1O)[C@H](OCc1cccc(F)c1)[C@H](O)[C@@H](O)[C@@H](OCc1cccc(F)c1)C(=O)N[C@H]1c2ccccc2C[C@H]1O (some centres undefined)" system="Human immunodeficiency virus type 1 protease (Human immunodeficiency virus 1)" assignedcategory="criterion met"
compound=CNC(=O)[C@@H](NC(=O)[C@H](OCc1ccc(F)c(F)c1)[C@H](O)[C@@H](O)[C@@H](OCc1ccc(F)c(F)c1)C(=O)N[C@H](C(=O)NC)C(C)C)C(C)C system="Human immunodeficiency virus type 1 protease (Human immunodeficiency virus 1)" assignedcategory="criterion met"

Here is the next item to consider.
*Q* # TODO verify ED50 < 1 µM strictly for this compound: Cc1c(O)cccc1C(=O)N[C@@H](CSc1ccccc1)[C@H](O)CN1C[C@H]2CCCC[C@H]2C[C@H]1C(=O)NC(C)(C)C
*A* criterion not met

---

Target: Human immunodeficiency virus type 1 protease (Human immunodeficiency virus 1) (UniProt Q72874)
Experiment: Anti-HIV-1 activity against mutant HIV-1 in MT-4 cells (mutation selected with saquinavir)
Format: functional, cell-based
Conditions: MT4
Mark t for ED50 under 400 nM, f if at or over.

Examples from the recorded data:
molecule="O=C(NC1c2ccccc2C[C@H]1O)[C@H](OCc1cc(F)cc(F)c1)[C@H](O)[C@@H](O)[C@@H](OCc1cc(F)cc(F)c1)C(=O)N[C@H]1c2ccccc2C[C@H]1O (some centres not stated)" assignedcategory=t
molecule=CNC(=O)[C@@H](NC(=O)[C@H](OCc1cc(F)ccc1F)[C@H](O)[C@@H](O)[C@@H](OCc1cc(F)ccc1F)C(=O)N[C@H](C(=O)NC)C(C)C)C(C)C assignedcategory=f
molecule=Cc1c(O)cccc1C(=O)N[C@@H](CSc1ccccc1)[C@H](O)CN1C[C@H]2CCCC[C@H]2C[C@H]1C(=O)NC(C)(C)C assignedcategory=t
molecule=CC(C)(C)NC(=O)[C@@H]1C[C@@H]2CCCC[C@@H]2CN1C[C@@H](O)[C@H](Cc1ccccc1)NC(=O)[C@H](CC(N)=O)NC(=O)c1ccc2ccccc2n1 assignedcategory=t

*Q* # TODO verify ED50 < 400 nM strictly for this molecule: CNC(=O)[C@@H](NC(=O)[C@H](OCc1cc(F)cc(F)c1)[C@H](O)[C@@H](O)[C@@H](OCc1cc(F)cc(F)c1)C(=O)N[C@H](C(=O)NC)C(C)C)C(C)C
*A* f

---

Biological target: Human immunodeficiency virus type 1 protease (Human immunodeficiency virus 1) (UniProt Q72874)
Experiment: Anti-HIV-1 activity against mutant HIV-1 in MT-4 cells (mutation selected with saquinavir)
Assay type: functional, cell-based
Conditions: MT4
measuredQuantity: log10 of ED50 (log10 of the value in nM)
Log scale reminder: ED50 in nM, then log10 taken.

Some compounds with known log10 of ED50 results, for comparison:
compound=CC(C)c1nc(CN(C)C(=O)N[C@H](C(=O)N[C@@H](Cc2ccccc2)C[C@H](O)[C@H](Cc2ccccc2)NC(=O)OCc2cncs2)C(C)C)cs1 measuredquantity="log10 of ED50" valuereported=2.61
compound="O=C(NC1c2ccccc2C[C@H]1O)[C@H](OCc1c(F)cccc1F)[C@H](O)[C@@H](O)[C@@H](OCc1c(F)cccc1F)C(=O)N[C@H]1c2ccccc2C[C@H]1O (some centres not stated)" measuredquantity="log10 of ED50" valuereported=2.11
compound=CNC(=O)[C@@H](NC(=O)[C@H](OCc1ccccc1F)[C@H](O)[C@@H](O)[C@@H](OCc1ccccc1F)C(=O)N[C@H](C(=O)NC)C(C)C)C(C)C measuredquantity="log10 of ED50" valuereported=2.80
compound="O=C(NC1c2ccccc2C[C@H]1O)[C@H](OCc1ccccc1F)[C@H](O)[C@@H](O)[C@@H](OCc1ccccc1F)C(=O)N[C@H]1c2ccccc2C[C@H]1O (some centres not stated)" measuredquantity="log10 of ED50" valuereported=1.90
compound="O=C(NC1c2ccccc2C[C@H]1O)[C@H](OCc1cc(F)ccc1F)[C@H](O)[C@@H](O)[C@@H](OCc1cc(F)ccc1F)C(=O)N[C@H]1c2ccccc2C[C@H]1O (some centres not stated)" measuredquantity="log10 of ED50" valuereported=1.90
compound=CNC(=O)[C@@H](NC(=O)[C@H](OCc1ccc(F)cc1)[C@H](O)[C@@H](O)[C@@H](OCc1ccc(F)cc1)C(=O)N[C@H](C(=O)NC)C(C)C)C(C)C measuredquantity="log10 of ED50" valuereported=3.56

Record O=C(NC1c2ccccc2C[C@H]1O)[C@H](OCc1cccc(F)c1)[C@H](O)[C@@H](O)[C@@H](OCc1cccc(F)c1)C(=O)N[C@H]1c2ccccc2C[C@H]1O (some centres not stated) . Reported log10 of ED50: 2.98
